Data origin, for the record: ChEMBL document CHEMBL1275577

- System: Clostridium hathewayi
- protocol_summary: Antimicrobial activity against Clostridium hathewayi by Wadsworth agar dilution method
- Format: functional
- assay_context: Hungatella hathewayi
For each record, write down the corresponding MIC90.
The reply should be a number in µg/mL, with the unit left off.

Exam item: So what MIC90 did `NC[C@@H]1O[C@H](O[C@H]2[C@@H](O)[C@H](O[C@@H]3[C@@H](O)[C@H](N)C[C@H](N)[C@H]3O[C@H]3O[C@H](CN)[C@@H](O)[C@H](O)[C@H]3N)O[C@@H]2CO)[C@H](N)[C@@H](O)[C@@H]1O` get with Clostridium hathewayi?
Marked response: 512

Exam item: Now this one: `CN[C@H](CC(C)C)C(=O)N[C@H]1C(=O)N[C@@H](CC(N)=O)C(=O)N[C@H]2C(=O)N[C@H]3C(=O)N[C@H](C(=O)N[C@H](C(=O)O)c4cc(O)cc(O)c4-c4cc3ccc4O)[C@H](O)c3ccc(c(Cl)c3)Oc3cc2cc(c3O[C@@H]2O[C@H](CO)[C@@H](O)[C@H](O)[C@H]2O[C@H]2C[C@](C)(N)[C@H](O)[C@H](C)O2)Oc2ccc(cc2Cl)[C@H]1O`
Marked response: 1

Exam item: Now this one: CC(=O)Oc1ccccc1C(=O)Nc1ncc([N+](=O)[O-])s1 [NITAZOXANIDE]
Marked response: 0.5

Exam item: Now this one: `CO[C@H]1/C=C/O[C@@]2(C)Oc3c(C)c(O)c4c(O)c(c5c(nc6cc(C)ccn65)c4c3C2=O)NC(=O)/C(C)=C\C=C\[C@H](C)[C@H](O)[C@@H](C)[C@@H](O)[C@@H](C)[C@H](OC(C)=O)[C@@H]1C`
Marked response: 0.25

###

- Test system: Catenibacterium mitsuokai
- protocol_summary: Antimicrobial activity against Catenibacterium mitsuokai by Wadsworth agar dilution method
- Format: functional
For each record, write down the corresponding MIC90.
The reply should be a number in µg/mL, with the unit left off.

Exam item: Item under review: CC(=O)Oc1ccccc1C(=O)Nc1ncc([N+](=O)[O-])s1 [NITAZOXANIDE] . Reported MIC90?
Marked response: 32

Exam item: Now this one: CN[C@H](CC(C)C)C(=O)N[C@H]1C(=O)N[C@@H](CC(N)=O)C(=O)N[C@H]2C(=O)N[C@H]3C(=O)N[C@H](C(=O)N[C@H](C(=O)O)c4cc(O)cc(O)c4-c4cc3ccc4O)[C@H](O)c3ccc(c(Cl)c3)Oc3cc2cc(c3O[C@@H]2O[C@H](CO)[C@@H](O)[C@H](O)[C@H]2O[C@H]2C[C@](C)(N)[C@H](O)[C@H](C)O2)Oc2ccc(cc2Cl)[C@H]1O [VANCOMYCIN]
Marked response: 64

Exam item: Now this one: NC[C@@H]1O[C@H](O[C@H]2[C@@H](O)[C@H](O[C@@H]3[C@@H](O)[C@H](N)C[C@H](N)[C@H]3O[C@H]3O[C@H](CN)[C@@H](O)[C@H](O)[C@H]3N)O[C@@H]2CO)[C@H](N)[C@@H](O)[C@@H]1O [FRAMYCETIN]
Marked response: 1020

###

- Tested on: Clostridium disporicum
- protocol_summary: Antimicrobial activity against Clostridium disporicum by Wadsworth agar dilution method
- Format: functional
experimental_readout: MIC50 (µg/mL)
The reply should be a number in µg/mL, with the unit left off.

Exam item: Item under review: `NC[C@@H]1O[C@H](O[C@H]2[C@@H](O)[C@H](O[C@@H]3[C@@H](O)[C@H](N)C[C@H](N)[C@H]3O[C@H]3O[C@H](CN)[C@@H](O)[C@H](O)[C@H]3N)O[C@@H]2CO)[C@H](N)[C@@H](O)[C@@H]1O` . Reported MIC50?
Marked response: 256

Exam item: Now this one: `CO[C@H]1/C=C/O[C@@]2(C)Oc3c(C)c(O)c4c(O)c(c5c(nc6cc(C)ccn65)c4c3C2=O)NC(=O)/C(C)=C\C=C\[C@H](C)[C@H](O)[C@@H](C)[C@@H](O)[C@@H](C)[C@H](OC(C)=O)[C@@H]1C`
Marked response: 0.25

Exam item: Now this one: CC(=O)Oc1ccccc1C(=O)Nc1ncc([N+](=O)[O-])s1 [NITAZOXANIDE]
Marked response: 0.5

Exam item: Now this one: `CN[C@H](CC(C)C)C(=O)N[C@H]1C(=O)N[C@@H](CC(N)=O)C(=O)N[C@H]2C(=O)N[C@H]3C(=O)N[C@H](C(=O)N[C@H](C(=O)O)c4cc(O)cc(O)c4-c4cc3ccc4O)[C@H](O)c3ccc(c(Cl)c3)Oc3cc2cc(c3O[C@@H]2O[C@H](CO)[C@@H](O)[C@H](O)[C@H]2O[C@H]2C[C@](C)(N)[C@H](O)[C@H](C)O2)Oc2ccc(cc2Cl)[C@H]1O`
Marked response: 1
